Tested on: Cyclin-dependent kinase
Assay: Cyclin-dependent kinase inhibition, % inhibition at 10 nM (library Examples 99-270)
Type: biochemical
Conditions: 10 nM compound
property-label: % Inhib @ 10 nM (%)

% Inhib @ 10 nM reported for this compound "CCNCc1cncc(-c2ccc3[nH]nc(-c4ncc(C(=O)NCCc5c[nH]c6ccc(F)cc56)[nH]4)c3c2)c1C" : 56

[A] CCNCc1cncc(-c2ccc3[nH]nc(-c4ncc(C(=O)N5CCC(c6cccc(O)c6)CC5)[nH]4)c3c2)c1C
[B] CCNCc1cncc(-c2ccc3[nH]nc(-c4ncc(C(=O)NCCc5nnc(-c6cnccn6)o5)[nH]4)c3c2)c1C
Problem: // which entry has the larger % Inhib @ 10 nM value, A or B ? Please identify the chosen entry by its label.
Result: A

---

Molecular target: CDK2/Cyclin A (Homo sapiens, UniProt P24941)
Construct: made in house; host or cells: CDK2: insect cells (baculovirus); cyclin A: E. coli
Test: Inhibition of CDK2/Cyclin A retinoblastoma kinase activity (apparent Ki)
Type: biochemical
Settings: read-out: CDK2 Ki
pKi: −log10 of the molar value.
property-label: pKi

pKi reported for this compound CCNCc1cncc(-c2ccc3[nH]nc(-c4nc(-c5ccc(C(F)(F)F)cc5)c(C)[nH]4)c3c2)c1C [Example 28] : > 7.30

pKi reported for this compound CCNCc1cncc(-c2ccc3[nH]nc(-c4nc(CC(C)C)c(C)[nH]4)c3c2)c1C [Example 20] : > 7.30

pKi reported for this compound COCc1cncc(-c2ccc3[nH]nc(-c4ncc[nH]4)c3c2)c1C [Example 42] : 6.70 to 7.30

pKi reported for this compound CCNCc1cncc(-c2ccc3[nH]nc(-c4ncc(C(=O)N5CCCC5)[nH]4)c3c2)c1C [Example 61] : > 7.30

pKi reported for this compound CCNCc1cncc(-c2ccc3[nH]nc(-c4nc(-c5ccccc5)c(C(=O)NCCCO)[nH]4)c3c2)c1C [Example 17] : 6.70 to 7.30

pKi reported for this compound CCNCc1cncc(-c2ccc3[nH]nc(-c4nc(-c5ccc(F)cc5)c[nH]4)c3c2)c1C [Example 31] : > 7.30

---

Tested on: Cyclin-dependent kinase
Assay: Cyclin-dependent kinase inhibition, % inhibition at 10 nM (library Examples 99-270)
Assay type: biochemical
Details: 10 nM compound
property-label: % Inhib @ 10 nM (%)

[1] CCNCc1cncc(-c2ccc3[nH]nc(-c4ncc(C(=O)N5CCCC(O)(Cn6cccn6)CC5)[nH]4)c3c2)c1C (centres unmarked)
[2] CCNCc1cncc(-c2ccc3[nH]nc(-c4ncc(C(=O)NC5(CO)CCCC5)[nH]4)c3c2)c1C
[3] CCNCc1cncc(-c2ccc3[nH]nc(-c4ncc(C(=O)NCC56CCCN5CCC6)[nH]4)c3c2)c1C
Problem: Please order the records by their reported % Inhib @ 10 nM, lowest number first. Use the labels to give the requested order.
Result: 3, 1, 2

---

Tested on: Cyclin-dependent kinase
Assay: Cyclin-dependent kinase inhibition, % inhibition at 10 nM (library Examples 99-270)
Format: biochemical
Conditions: 10 nM compound
property-label: % Inhib @ 10 nM (%)

// known answers, use as guide
% Inhib @ 10 nM reported for this compound CCNCc1cncc(-c2ccc3[nH]nc(-c4ncc(C(=O)N5CCC6(CC5)CC(N5CCCC5)CO6)[nH]4)c3c2)c1C (centres unmarked) [Example 254] : 11

% Inhib @ 10 nM reported for this compound CCNCc1cncc(-c2ccc3[nH]nc(-c4ncc(C(=O)N5CCC(CNC(=O)C(F)(F)F)CC5)[nH]4)c3c2)c1C [Example 170] : 29

% Inhib @ 10 nM reported for this compound CCNCc1cncc(-c2ccc3[nH]nc(-c4ncc(C(=O)N(C)C5CCN(C)C5)[nH]4)c3c2)c1C (centres unmarked) [Example 137] : 37

% Inhib @ 10 nM reported for this compound CCNCc1cncc(-c2ccc3[nH]nc(-c4ncc(C(=O)N5CCC(Cc6cccc(CO)c6)CC5)[nH]4)c3c2)c1C [Example 262] : 59

[I] CCNCc1cncc(-c2ccc3[nH]nc(-c4ncc(C(=O)NCc5cccnc5)[nH]4)c3c2)c1C [Example 101]
[II] CCNCc1cncc(-c2ccc3[nH]nc(-c4ncc(C(=O)NCCC5CCC(=O)N5Cc5ccccc5)[nH]4)c3c2)c1C (centres unmarked) [Example 253]
[III] CCNCc1cncc(-c2ccc3[nH]nc(-c4ncc(C(=O)NCC5(N(C)C)CCOCC5)[nH]4)c3c2)c1C [Example 210]
[IV] CCNCc1cncc(-c2ccc3[nH]nc(-c4ncc(C(=O)N[C@H]5CCc6ccccc65)[nH]4)c3c2)c1C [Example 162]
Problem: Sort these compounds on % Inhib @ 10 nM so the largest reading comes first. Use the labels to give the requested order.
Result: IV, I, III, II
(IV: 81%, I: 54%, III: 35%, II: 18%)

[P] CCNCc1cncc(-c2ccc3[nH]nc(-c4ncc(C(=O)NCCCSC)[nH]4)c3c2)c1C [Example 174]
[Q] CCNCc1cncc(-c2ccc3[nH]nc(-c4ncc(C(=O)N(CC)CCOC)[nH]4)c3c2)c1C [Example 175]
Problem: Given P and given Q , which shows the smaller recorded % Inhib @ 10 nM? Please identify the chosen entry by its label.
Result: P
(P: 41%, Q: 68%)
